The measured values listed here are drawn from paper PMC6689051.

test system: P0; assay: method not stated in excerpt; details: 10 mM Tris-HCl pH 7.5, 50 mM KCl, 10 mM MgCl2 (10.1 mM MgCl2 + 0.1 mM EDTA), 23 C; nitrocellulose filter binding, 2 nM-2 uM Fab, 30 min
endpoint name: Kd
Please don't drop the unit; write it after the number.

Could you share which Kd value was measured for GGCAAACAUCAUUUGGCCUUAAAUGGGAUUCUGUGAGAGGGGAUCCCUCCAUUGACAGCUGGACUGUUCUUUGGGGCCUUAUGUGGUGUUUG [HAV dV (HAV593-684)] ? 220 nM

---

test system: Fab HAVx (synthetic (phage display, humanized Fab4D5 framework, YSGRKX library; expressed in E. coli)), PDB:6MWN_2+PDB:6MWN_3; test: filter binding; details: 10 mM Tris-HCl pH 7.5, 50 mM KCl, 10 mM MgCl2 (10.1 mM MgCl2 + 0.1 mM EDTA), 23 C; nitrocellulose filter binding, 2 nM-2 uM Fab, 30 min
Consider the following sequences and their measured pKd readings.
Worth noting: pKd values are minus log10 of concentrations stated in mol/L.

Could you share which pKd value was measured for GGCAAACAUCAUUUGGCCUUAAAUGGGAUUCUGUGAGAGGGGAUCCCUCCAUUGACAGCUGGACUGUUCUUUGGGGCCUUAUGUGGUGUUUG [HAV dV (HAV593-684)] ? 7.36

Could you share which pKd value was measured for GGCAAACAUCAUUUGGCCUUAAAUGGGAUUCUGUGAGACGGGAUCCCUCCAUUGACAGCUGGACUGUUCUUUGGGGCCUUAUGUGGUGUUUG [HAV dV G631C] ? 7.24

Could you share which pKd value was measured for GGCAAACAUCAUUUGGCCUUAAAUGGGAUUCUGUGAGAGGGGAUCCCUCCAUUGACAGCUGGACUGUUCUUUGGGGCCUAUGUGGUGUUUG [HAV dV delU674] ? 6.75

---

tested on: best Fab clone from YSGR library (unnamed) (synthetic (phage display, humanized Fab4D5 framework; expressed in E. coli)); assay: filter binding; details: 10 mM Tris-HCl pH 7.5, 50 mM KCl, 10 mM MgCl2 (10.1 mM MgCl2 + 0.1 mM EDTA), 23 C; nitrocellulose filter binding, 2 nM-2 uM Fab, 30 min
endpoint name: Kd (µM)
Kindly provide the numeric value in µM only, without the unit symbol.

Could you share which Kd value was measured for GGCAAACAUCAUUUGGCCUUAAAUGGGAUUCUGUGAGAGGGGAUCCCUCCAUUGACAGCUGGACUGUUCUUUGGGGCCUUAUGUGGUGUUUG [HAV dV (HAV593-684)] ? 0.29
